Reference for the values: the supplement of paper PMC6555819

tested on: RARg:RXRa (NR concentration 270 nM, RXRa partner concentration 90 nM); assay: PBM binding z-score (relative to random genomic background probes); higher = stronger binding; sequences stand for … in GC…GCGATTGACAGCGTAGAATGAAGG
VALUE_KIND: PBM binding z-score
Answer with a number only.

Ask: # value lookup — system RARg:RXRa (NR concentration 270 nM, RXRa partner concentration 90 nM), readout PBM binding z-score, item `TCAAGTTGGTCACGGAGGTCACACACGACGGGTA`
Reply: 4.9

Ask: # value lookup — system RARg:RXRa (NR concentration 270 nM, RXRa partner concentration 90 nM), readout PBM binding z-score, item `CCTCGGAGGACAACAGGAGGTAAGAGCTGCCAGA`
Reply: 0.652

Ask: # value lookup — system RARg:RXRa (NR concentration 270 nM, RXRa partner concentration 90 nM), readout PBM binding z-score, item `GCGAGCAGGCCATTTGGGTCACTCAATGACGGGC`
Reply: 1.09

Ask: # value lookup — system RARg:RXRa (NR concentration 270 nM, RXRa partner concentration 90 nM), readout PBM binding z-score, item `TAGTCTAGGTCATGGGCCAGTATACCACGCGAAC`
Reply: 4.03

Ask: # value lookup — system RARg:RXRa (NR concentration 270 nM, RXRa partner concentration 90 nM), readout PBM binding z-score, item `CCTATTAGTTTACCATAAGGGCAACCGAAGCTCG`
Reply: 1.14

Ask: # value lookup — system RARg:RXRa (NR concentration 270 nM, RXRa partner concentration 90 nM), readout PBM binding z-score, item `CCTTACGGGTCAAGGTTTTAGCACGGGTGGTACG`
Reply: 4.62

Ask: # value lookup — system RARg:RXRa (NR concentration 270 nM, RXRa partner concentration 90 nM), readout PBM binding z-score, item `ACTATTAGTTGAGACGAAGGCAACCGATAGGTTG`
Reply: -0.255

Ask: # value lookup — system RARg:RXRa (NR concentration 270 nM, RXRa partner concentration 90 nM), readout PBM binding z-score, item `CGAACTAGGTCATTGGCAGGACAGTGAATAGTAA`
Reply: 4.52

Ask: # value lookup — system RARg:RXRa (NR concentration 270 nM, RXRa partner concentration 90 nM), readout PBM binding z-score, item `TAGCATAGGTCATGGGCCAGTATACCACGCGAAC`
Reply: 5.5

Ask: # value lookup — system RARg:RXRa (NR concentration 270 nM, RXRa partner concentration 90 nM), readout PBM binding z-score, item `TCTTGTAGATTAACAGGAGGTTAAGAAAGATCGA`
Reply: 0.787

Ask: # value lookup — system RARg:RXRa (NR concentration 270 nM, RXRa partner concentration 90 nM), readout PBM binding z-score, item `CTCGAAAAGTCGTGCTCAGGTGAGTATACCAAAC`
Reply: 0.157

Ask: # value lookup — system RARg:RXRa (NR concentration 270 nM, RXRa partner concentration 90 nM), readout PBM binding z-score, item `TATACAGGGTCAAAGGCCAGCGTACGAATGTCGA`
Reply: 5.75
